pIC50: −log10 of the molar value.
Reported pIC50 against Receptor-type tyrosine-protein kinase FLT3 (Homo sapiens, UniProt P36888), gathered from multiple publications, appears below.
Quick rule for you: pIC50 at 9 or higher means 1 (yes), lower means 0 (no).

- compound: "O=C(/C=C/c1cccnc1)NCc1ccc(-c2nc3ccc(F)cc3[nH]2)cc1"
  class.assignment: "0 (no)"

Decide: pIC50 of CN(C)C/C=C/C(=O)Nc1cc2cc(c1)Nc1nccc(n1)-c1cccc(c1)COC/C=C/CN(C)C2 >= 9?
0 (no)

Does the compound Cc1cc(-c2nc(C(=O)Nc3cc4cn(C5CCOC(C)(C)C5)nc4cc3C(C)(C)O)co2)ccn1 (centres unmarked) have recorded pIC50 that is 9 or more?
1 (yes)
